B1: library; numbered along this chain (parent)
chain: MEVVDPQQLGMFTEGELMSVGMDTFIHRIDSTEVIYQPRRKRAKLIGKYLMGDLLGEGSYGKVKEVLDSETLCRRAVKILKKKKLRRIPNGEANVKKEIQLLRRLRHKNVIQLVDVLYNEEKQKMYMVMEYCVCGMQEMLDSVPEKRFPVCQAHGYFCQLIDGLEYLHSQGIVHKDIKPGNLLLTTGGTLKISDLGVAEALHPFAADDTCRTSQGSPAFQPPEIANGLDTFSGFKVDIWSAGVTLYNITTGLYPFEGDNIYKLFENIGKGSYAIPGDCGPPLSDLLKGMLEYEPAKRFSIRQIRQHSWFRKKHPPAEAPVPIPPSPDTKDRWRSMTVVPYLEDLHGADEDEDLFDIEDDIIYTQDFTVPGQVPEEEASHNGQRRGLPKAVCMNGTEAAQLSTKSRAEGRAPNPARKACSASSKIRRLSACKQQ

Variants of: B1
methodDescription: STK11 functional score (HeLa growth suppression), rescaled enrichment; synonymous median = 1, nonsense median = 0 (normalised score)
assaySetup: with HeLa; variant type: missense
So basically, if STK11 functional score comes in under 1 it's met, and if it's 1 or more it's not met.

>  <sequenceChange>
T395P

>  <classification>
not met

$$$$
>  <sequenceChange>
V320A

>  <classification>
not met

$$$$
>  <sequenceChange>
S193G

>  <classification>
met

$$$$
>  <sequenceChange>
D162T

>  <classification>
not met

$$$$
>  <sequenceChange>
K44I

>  <classification>
not met

$$$$
>  <sequenceChange>
G56R

>  <classification>
met

$$$$
>  <sequenceChange>
V337P

>  <classification>
not met

$$$$
>  <sequenceChange>
Y126C

>  <classification>
met

$$$$
>  <sequenceChange>
Y340S

>  <classification>
not met

$$$$
>  <sequenceChange>
L184C

>  <classification>
met

$$$$
